Tested on: ACHN renal
Assay: NCI-60 one-dose screen, 48 h (100 = growth as untreated, 0 = no growth, -100 = all killed)
Conditions: 10 µM unless noted
Method: Growth inhibition of the ACHN human tumor cell line is measured as a screen for anti-cancer activity. Cells are grown in 96 well plates and exposed to the test compound for 48 hours. Compounds are tested at a single concentration, which is 10^-5 M for most compounds. The reported endpoint is percent growth (GI% or GIPRCNT), where numbers from 0 - 100% represent growth inhibition, and numbers from -100% - 0 represent cell death. For example, a value of 40 represents 60% growth inhibition. […]
The panel holds about 83,000 compounds, 20% with a hit somewhere; the sample as a whole holds those more often.
growth: recorded values
Property Label: growth (%)

Molecule | Reading
Clc1ccc(NC(Nc2ccc(Cl)cc2)C(Cl)(Cl)Cl)cc1 | 41.6
CC1(c2ccc3ccccc3c2)CCC(=O)O1 (stereo not given) | 101
Cc1ncsc1CCO | 107
O=C=NC(c1ccccc1)(c1ccccc1)c1ccccc1 | 99.2
COc1ccc2cc3[n+](cc2c1OC)CCc1cc2c(cc1-3)OCO2 | 91.2
N=C1N=C(N)CS1 | 116
NC(=S)NS(=O)(=O)c1ccc(N)cc1 | 96.5
Nc1ccc2ccc(N)cc2c1 | 84.8
COc1ccc2ccccc2c1/C=N/N1CCCCC1 | 99
C[N+](C)(C)CN1C(=O)c2ccccc2C1=O | 102
COc1ccc(NC(=S)Nc2ccccn2)cc1 | 97.7
O=[N+]([O-])c1ccc2nc3c4ccccc4c4ccccc4c3nc2c1 | 57.3
O=C(CCc1ccc(O)cc1)N/N=C/c1cc(Br)ccc1O | 27
CCCCCCCCCCCCOc1ccccc1C=O | 101
CCOC(=O)C(C(=O)OCC)C(c1ccccc1)N1CCN(c2ccccc2)CC1 (stereo not given) | 105

Each recorded value in this set is attributed to PubChem BioAssay (NCI).
